Data origin, for the record: patent US11787780B2

# Target or system: glucocorticoid receptor (GR) recombinant ligand binding domain (LBD) (Homo sapiens (Human))
# Experiment: GR binding fluorescence polarisation (FP) assay
# Test conditions: displacement of fluorescently tagged ligand
pIC50: −log10 of the molar value.
Metric name: pIC50

Consider the worked cases shown below.
# Compound, pIC50
records = [
    ("Cc1cc2c(cc1C1(Cc3ccccc3)CCN(S(=O)(=O)c3cnn(C)c3)C1)nnn2-c1ccc(F)cc1 (stereo not drawn) [Example 172]", 7.24),
    ("Cc1cc2c(cnn2-c2ccc(F)cc2)cc1N1CC[C@@H](NS(=O)(=O)c2cnn(C)c2)C1 [Example 110]", 7.34),
    ("Cc1cc2c(cnn2-c2ccc(=O)n(C)c2)cc1C1(Cc2ccccc2)CCN(S(=O)(=O)c2ccc(Cl)cc2)C1 (stereo not drawn) [Example 305]", 8.52),
    ("CS(=O)(=O)N1CCC(c2ccc3c(cnn3-c3ccc(F)cc3)c2)CC1 [Example 134]", 5.47),
    ("CCCn1cc(S(=O)(=O)N2CC=C(c3cc4cnn(-c5ccc(F)cc5)c4cc3OC(F)F)CC2)cn1 [Example 144]", 6.58),
    ("O=S(=O)(c1cnn(CC2CC2)c1)N1CCN(c2ccc3c(cnn3-c3ccc(F)cc3)c2)C[C@H]1CO [Example 14]", 6.45),
]

1. CCCn1cc(S(=O)(=O)N2CCN(c3cc4cnn(-c5cccc(C(=O)NC6CCOC6)c5)c4cc3C)CC23CC3)cn1 (stereo not drawn) [Example 84]
2. CCCn1cc(S(=O)(=O)N2C[C@H](C)N(c3ccc4c(cnn4-c4ccc(F)cc4)c3)C[C@H]2C)cn1 [Example 55]
3. Cc1cc2c(cnn2-c2ccc(F)cc2)cc1C1(Cc2ccc(C(F)(F)F)cc2)CCN(S(C)(=O)=O)C1 (stereo not drawn) [Example 177]
Given 3 compounds, produce a descending ranking by pIC50. Lab note: final answer is the ordered label list.
1, 2, 3

###

# Target or system: glucocorticoid receptor (GR) recombinant ligand binding domain (LBD) (Homo sapiens (Human))
# Experiment: GR binding fluorescence polarisation (FP) assay
# Test conditions: displacement of fluorescently tagged ligand
Metric name: IC50 (nM)

P. Cc1ccc(S(=O)(=O)N2CCC(Cc3ccccc3)(c3cc4cnn(-c5ccc(=O)n(C)c5)c4cc3C)C2)cn1 (centres unmarked)
Q. Cc1cc2c(cnn2-c2cc(C3CC3)c(=O)n(C)c2)cc1C1(Cc2ccccc2)CCN(S(=O)(=O)c2cnn(C)n2)C1 (centres unmarked)
R. COCC1(c2cc3cnn(-c4ccc(F)cc4)c3cc2C)CCN(S(=O)(=O)c2cnn(C)c2)C1 (centres unmarked)
S. Cc1cc2c(cnn2-c2ccc(F)cc2)cc1N1CC[C@@H](N(C)S(=O)(=O)c2cnn(C)c2)C1
I'd appreciate it if you could rank the compounds mentioned above by IC50, largest value first. Lab note: final answer is the ordered label list.
Q, R, S, P
(Q: 280 nM, R: 57 nM, S: 21 nM, P: 8.8 nM)

a. COC[C@@H]1CN(c2ccc3c(cnn3-c3ccc(F)cc3)c2)CCN1S(=O)(=O)c1cnn(CC2CC2)c1
b. Cc1cc2c(cnn2-c2ccc(=O)n(C)c2)cc1C1(Cc2ccccc2)CCN(S(=O)(=O)c2cccc(F)c2F)C1 (centres unmarked)
c. C[C@@H]1CN(c2ccc3c(cnn3-c3ccc(F)cc3)c2)CCN1S(=O)(=O)c1cnn(C2CCOCC2)c1
d. CC(=O)N1CCN(c2ccc3c(cnn3-c3ccc(F)cc3)c2)[C@H](C)C1
Given 4 compounds, produce a descending ranking by IC50. Lab note: final answer is the ordered label list.
d, a, c, b

###

# Target or system: glucocorticoid receptor (GR) recombinant ligand binding domain (LBD) (Homo sapiens (Human), UniProt P04150)
# Sequence (P04150 524-758): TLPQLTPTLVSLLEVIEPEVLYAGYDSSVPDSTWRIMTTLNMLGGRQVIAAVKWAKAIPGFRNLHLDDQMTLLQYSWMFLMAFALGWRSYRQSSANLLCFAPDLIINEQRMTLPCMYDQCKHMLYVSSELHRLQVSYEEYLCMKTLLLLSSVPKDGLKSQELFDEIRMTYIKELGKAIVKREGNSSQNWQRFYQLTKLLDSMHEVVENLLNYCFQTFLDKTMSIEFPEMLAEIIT
# Experiment: GR binding fluorescence polarisation (FP) assay
# Test conditions: displacement of fluorescently tagged ligand
Metric name: IC50 (nM)

# Compound, Unit abbreviation, Result value
records = [
    ("COc1cc2c(cnn2-c2ccc(F)cc2)cc1C1(Cc2ccc(F)cc2)CCN(S(=O)(=O)c2cnn(C)n2)C1 (stereo not shown)", "nM", 26),
    ("Cc1cc2c(cnn2-c2ccc(=O)n(C)c2)cc1C1(Cc2ccccc2)CCN(S(=O)(=O)c2c(F)cccc2F)C1 (stereo not shown)", "nM", 6.7),
    ("CCCn1cc(S(=O)(=O)N2CC[C@@](Cc3ccccc3)(c3cc4cnn(-c5ccc(F)cc5)c4cc3C)C2)cn1", "nM", 52),
]

a. Cc1cc2c(cnn2-c2ccc(=O)n(C)c2)cc1C1(Cc2ccccc2)CCN(C(=O)c2ccccc2)C1 (stereo not shown)
b. C[C@@H]1CN(c2ccc3c(cnn3-c3ccc(F)cc3)c2)CCN1S(=O)(=O)c1ccnn1C
c. CCn1cc(S(=O)(=O)N2CCC(Cc3ccc(F)cc3)(c3cc4cnn(-c5ccc(F)cc5)c4cc3OC)C2)cn1 (stereo not shown)
d. CCCn1cc(S(=O)(=O)N2CCC(C(=O)N3CCCC3)(c3cc4cnn(-c5ccc(F)cc5)c4cc3C)CC2)cn1
Given 4 compounds, produce a descending ranking by IC50. Lab note: final answer is the ordered label list.
d, b, a, c

###

# Target or system: glucocorticoid receptor (GR) recombinant ligand binding domain (LBD) (Homo sapiens (Human))
# Experiment: GR binding fluorescence polarisation (FP) assay
# Test conditions: displacement of fluorescently tagged ligand
Metric name: IC50 (nM)

# Compound, IC50, nM
rows = [
    ("Cc1cc2c(cnn2-c2ccc(F)cc2)cc1N1CC[C@H](N(C)S(=O)(=O)c2cnn(C)c2)C1", 304),
]

A. CC(C)c1cc2c(cnn2-c2ccc(F)cc2)cc1C1(Cc2ccccc2)CCN(S(C)(=O)=O)C1 (stereo not drawn)
B. [2H]C([2H])([2H])n1cc(-n2ncc3cc(C4(Cc5ccccc5)CCN(S(=O)(=O)c5cnn(C)n5)C4)c(C)cc32)cn1 (stereo not drawn)
C. CCCn1cc(S(=O)(=O)N2CC=C(c3cc4cnn(-c5ccc(F)cc5)c4cc3C)C[C@H]2C)cn1
D. CCCn1cc(S(=O)(=O)N2CCC(Cc3cccnc3)(c3cc4cnn(-c5ccc(F)cc5)c4cc3C)C2)cn1 (stereo not drawn)
E. CCCn1cc(S(=O)(=O)N(C)C2CCCN(c3cc4cnn(-c5ccc(F)cc5)c4cc3C)C2)cn1 (stereo not drawn)
Given 5 compounds, produce a descending ranking by IC50. Lab note: final answer is the ordered label list.
E, C, A, D, B
(E: 590 nM, C: 258 nM, A: 106 nM, D: 13 nM, B: 4.1 nM)

I. Cc1cc2c(cnn2-c2ccc(=O)n(C)c2)cc1C1(Cc2ccccc2)CCN(S(=O)(=O)c2ccn(C)n2)C1 (stereo not drawn)
II. CC(C)c1cc2c(cnn2-c2ccc(F)cc2)cc1C1(Cc2ccccc2)CCN(S(=O)(=O)c2cnn(C)c2)C1 (stereo not drawn)
Among I and II , whose measured IC50 is the smaller figure? Please respond with the label that marks your chosen entry.
I
(I: 5.4 nM, II: 189 nM)

A. Cc1cc2c(cnn2-c2ccc(F)cc2)cc1N1CCC(C)(NS(=O)(=O)c2cnn(CC3CC3)n2)CC1
B. CCCNS(=O)(=O)N1CCN(c2ccc3c(cnn3-c3ccc(F)cc3)c2)C[C@H]1C
Among A and B , whose measured IC50 is the smaller figure? Please respond with the label that marks your chosen entry.
A
(A: 13 nM, B: 215 nM)

1. CC(=O)N1CCC(Cc2ccccc2)(c2cc3cnn(-c4ccc(F)cc4)c3cc2C)C1 (stereo not drawn)
2. CCCn1cc(S(=O)(=O)N2CCN(c3ccc4c(cnn4-c4ccc(F)cc4)c3)C3(CC3)C2)cn1
3. Cc1cc2c(cnn2-c2ccc(F)cc2)cc1C1(Cc2ccccc2)CCN(S(=O)(=O)c2cnn(C)n2)C1 (stereo not drawn)
Given 3 compounds, produce a descending ranking by IC50. Lab note: final answer is the ordered label list.
2, 3, 1

###

# Target or system: glucocorticoid receptor (GR) recombinant ligand binding domain (LBD) (Homo sapiens (Human), UniProt P04150)
# Experiment: GR binding fluorescence polarisation (FP) assay
# Test conditions: displacement of fluorescently tagged ligand
Metric name: IC50 (nM)

Consider the worked cases shown below.
# Compound, Unit abbreviation, IC50
rows = [
    ("Cc1cc2c(cnn2-c2ccc(F)cc2)cc1C1(Cc2ccccc2)CCN(C(=O)c2ccccc2)C1 (centres unmarked)", "nM", 28),
    ("Cc1cc2c(cnn2-c2cnn(C)c2)cc1C1(Cc2ccccc2)CCN(S(=O)(=O)c2ccc(F)c(F)c2)C1 (centres unmarked)", "nM", 22),
    ("Cc1cc2c(cnn2-c2ccc(F)cc2)cc1N1CCN(C(=O)Nc2ccccc2)C2(CC2)C1", "nM", 267),
]

1. CCCn1cc(S(=O)(=O)N2CCN(c3ccc4c(cnn4-c4ccc(F)cc4)c3)CC23CC3)cn1
2. Cc1cc2c(cnn2-c2ccc(F)cc2)cc1C1(Cc2ccccc2)CCN(S(=O)(=O)c2cnn(C)c2)C1 (centres unmarked)
Form field 'greater IC50' accepts 1 or 2 ; which applies? Please respond with the label that marks your chosen entry.
1

1. CC(=O)N1CCC(Cc2cccc(C(F)(F)F)c2)(c2cc3cnn(-c4ccc(F)cc4)c3cc2C)C1 (centres unmarked)
2. CCCn1cc(S(=O)(=O)N2CCC3(CCN(c4cc5cnn(-c6ccc(F)cc6)c5cc4C)CC3)C2)cn1
3. CCCn1cc(NS(=O)(=O)C2CCN(c3cc4cnn(-c5ccc(F)cc5)c4cc3C)C2)cn1 (centres unmarked)
4. CCCn1cc(S(=O)(=O)N2CCC(Cc3ccccc3)(c3cc4cnn(-c5ccc(=O)n(C)c5)c4cc3C)C2)cn1 (centres unmarked)
Given 4 compounds, produce a descending ranking by IC50. Lab note: final answer is the ordered label list.
2, 1, 3, 4

I. Cc1cc2c(cnn2-c2ccc(F)cc2)cc1N1CCN(S(=O)(=O)c2cnn(C)c2)C2(CC2)C1
II. CS(=O)(=O)N1CC=C(c2cc3cnn(-c4ccc(F)cc4)c3cc2Cl)CC1
III. Cc1cc2c(cnn2-c2ccc(=O)n(C)c2)cc1C1(Cc2ccccc2)CCN(S(=O)(=O)c2cc(F)ccc2F)C1 (centres unmarked)
IV. Cc1cc2c(cnn2-c2cccc(C(=O)NC3CCOC3)c2)cc1N1CCN(S(C)(=O)=O)C2(CC2)C1 (centres unmarked)
Please list these in order of increasing IC50. Thank you! Lab note: final answer is the ordered label list.
III, I, IV, II

I. Cn1ncc(S(=O)(=O)N2CCC(Cc3ccccc3)(c3cc4cnn(-c5ccc(F)cc5)c4cc3Cl)C2)n1 (centres unmarked)
II. CCCn1cc(S(=O)(=O)N2CCN(c3cc4cnn(-c5ccc(OC)cc5)c4cc3C)C[C@H]2C)cn1
Among I and II , whose measured IC50 is the smaller figure? Please respond with the label that marks your chosen entry.
I
(I: 21 nM, II: 325 nM)

P. CCCn1cc(S(=O)(=O)N2CC[C@](Cc3ccccc3)(c3cc4cnn(-c5ccc(F)cc5)c4cc3C)C2)cn1
Q. Cc1cc2c(cnn2-c2ccc(=O)n(C)c2)cc1C1(Cc2ccccc2)CCN(S(=O)(=O)c2cc(F)cc(F)c2)C1 (centres unmarked)
Among P and Q , whose measured IC50 is the smaller figure? Please respond with the label that marks your chosen entry.
Q

A. CCCn1cc(S(=O)(=O)N2CCC(c3cc4cnn(-c5ccc(F)cc5)c4cc3C)CC2)cn1
B. Cc1cc2c(cnn2-c2ccc(=O)n(C)c2)cc1C1(Cc2ccc(F)cc2)CCN(S(=O)(=O)c2cnn(C)n2)C1 (centres unmarked)
C. Cc1cc2c(cnn2-c2ccc(=O)n(C)c2)cc1C1(Cc2ccccc2)CCN(S(=O)(=O)c2ccc(F)cc2)C1 (centres unmarked)
D. Cc1cc2c(cnn2-c2cn(C)nc2C)cc1C1(Cc2ccccc2)CCN(S(=O)(=O)c2cnn(C)n2)C1 (centres unmarked)
E. CCCn1cc(S(=O)(=O)N2CCN(c3ccc4c(cnn4-c4ccc(F)cc4)c3)CC23CCC3)cn1
Given 5 compounds, produce a descending ranking by IC50. Lab note: final answer is the ordered label list.
E, A, D, B, C
(E: 429 nM, A: 148 nM, D: 52 nM, B: 7.5 nM, C: 3.6 nM)

1. Cc1cc2c(cnn2-c2ccc(=O)n(C)c2)cc1C1(Cc2ccccc2)CCN(S(=O)(=O)c2cccc(C#N)c2)C1 (centres unmarked)
2. Cc1cc2c(cnn2-c2ccc(=O)n(C)c2)cc1C1(Cc2ccccc2)CCN(S(=O)(=O)c2cccc(C(F)(F)F)n2)C1 (centres unmarked)
Among 1 and 2 , whose measured IC50 is the smaller figure? Please respond with the label that marks your chosen entry.
2

a. COc1cc2c(cnn2-c2ccc(F)cc2)cc1C1(Cc2ccccc2)CCN(S(C)(=O)=O)C1 (centres unmarked)
b. Cc1cc2c(cnn2-c2ccc(=O)n(C)c2)cc1C1(Cc2ccccc2)CCN(S(=O)(=O)c2cncc(Cl)c2)C1 (centres unmarked)
c. COc1cc2c(cnn2-c2ccc(F)c(C#N)c2)cc1C1(Cc2ccccc2)CCN(S(=O)(=O)c2cnn(C)n2)C1 (centres unmarked)
d. Cc1cc2c(cnn2-c2ccc(F)cc2)cc1C1CCN(S(C)(=O)=O)CC1
Given 4 compounds, produce a descending ranking by IC50. Lab note: final answer is the ordered label list.
d, c, b, a
